Molecular target: rBIIa/beta 1 sodium channels expressed in Xenopus oocytes (Rattus norvegicus, UniProt P04775)
Sequence (P04775 whole entry): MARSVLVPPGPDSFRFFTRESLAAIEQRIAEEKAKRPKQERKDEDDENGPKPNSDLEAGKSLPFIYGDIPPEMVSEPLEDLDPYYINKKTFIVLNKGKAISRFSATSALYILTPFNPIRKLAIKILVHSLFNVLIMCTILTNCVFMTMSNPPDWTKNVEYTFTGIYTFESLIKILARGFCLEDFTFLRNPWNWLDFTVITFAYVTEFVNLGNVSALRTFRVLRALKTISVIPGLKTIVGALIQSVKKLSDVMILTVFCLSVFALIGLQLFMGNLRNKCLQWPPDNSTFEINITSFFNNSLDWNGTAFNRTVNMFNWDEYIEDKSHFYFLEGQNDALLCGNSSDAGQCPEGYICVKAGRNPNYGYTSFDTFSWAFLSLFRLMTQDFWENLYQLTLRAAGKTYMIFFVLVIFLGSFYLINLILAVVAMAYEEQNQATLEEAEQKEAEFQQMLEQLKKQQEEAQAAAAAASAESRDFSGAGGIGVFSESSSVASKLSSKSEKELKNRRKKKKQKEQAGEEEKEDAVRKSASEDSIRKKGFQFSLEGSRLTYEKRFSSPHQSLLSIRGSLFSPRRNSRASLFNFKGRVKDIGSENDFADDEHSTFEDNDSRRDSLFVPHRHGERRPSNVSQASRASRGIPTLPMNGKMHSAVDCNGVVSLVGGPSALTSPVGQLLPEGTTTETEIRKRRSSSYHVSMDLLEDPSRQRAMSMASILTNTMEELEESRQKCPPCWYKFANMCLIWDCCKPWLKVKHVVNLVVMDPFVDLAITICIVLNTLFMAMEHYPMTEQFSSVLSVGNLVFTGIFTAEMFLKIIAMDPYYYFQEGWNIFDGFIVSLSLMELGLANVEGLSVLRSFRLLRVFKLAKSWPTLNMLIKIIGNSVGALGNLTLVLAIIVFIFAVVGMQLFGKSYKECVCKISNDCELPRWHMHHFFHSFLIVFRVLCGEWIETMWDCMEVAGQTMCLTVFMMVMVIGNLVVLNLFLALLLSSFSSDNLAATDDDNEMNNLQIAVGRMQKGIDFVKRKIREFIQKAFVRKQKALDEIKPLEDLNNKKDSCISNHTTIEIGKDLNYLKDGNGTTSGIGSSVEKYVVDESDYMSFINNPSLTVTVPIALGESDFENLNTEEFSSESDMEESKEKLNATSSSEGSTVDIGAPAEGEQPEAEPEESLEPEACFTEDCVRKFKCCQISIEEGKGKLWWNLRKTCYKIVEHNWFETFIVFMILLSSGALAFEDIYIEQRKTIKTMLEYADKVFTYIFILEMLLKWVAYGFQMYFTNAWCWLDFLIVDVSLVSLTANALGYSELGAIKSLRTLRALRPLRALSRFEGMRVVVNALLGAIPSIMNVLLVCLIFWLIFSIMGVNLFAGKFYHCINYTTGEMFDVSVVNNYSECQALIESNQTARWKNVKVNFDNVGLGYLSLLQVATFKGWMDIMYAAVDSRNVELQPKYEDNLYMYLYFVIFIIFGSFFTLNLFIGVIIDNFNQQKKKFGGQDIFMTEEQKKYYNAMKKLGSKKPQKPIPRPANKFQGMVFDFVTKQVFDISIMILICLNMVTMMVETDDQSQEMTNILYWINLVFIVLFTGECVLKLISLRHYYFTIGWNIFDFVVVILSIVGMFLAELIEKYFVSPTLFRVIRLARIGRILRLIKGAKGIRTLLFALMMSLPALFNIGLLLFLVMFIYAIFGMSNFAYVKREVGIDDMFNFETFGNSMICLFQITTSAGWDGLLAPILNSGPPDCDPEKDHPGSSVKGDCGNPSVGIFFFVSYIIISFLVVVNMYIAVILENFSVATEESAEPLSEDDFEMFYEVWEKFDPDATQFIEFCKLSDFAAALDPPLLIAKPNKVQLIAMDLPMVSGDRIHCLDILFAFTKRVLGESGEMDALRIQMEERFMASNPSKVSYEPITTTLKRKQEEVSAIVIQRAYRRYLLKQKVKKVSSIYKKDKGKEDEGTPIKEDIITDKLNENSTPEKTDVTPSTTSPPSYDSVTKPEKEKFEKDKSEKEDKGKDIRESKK
Sequence (Q00954 19-218 partner): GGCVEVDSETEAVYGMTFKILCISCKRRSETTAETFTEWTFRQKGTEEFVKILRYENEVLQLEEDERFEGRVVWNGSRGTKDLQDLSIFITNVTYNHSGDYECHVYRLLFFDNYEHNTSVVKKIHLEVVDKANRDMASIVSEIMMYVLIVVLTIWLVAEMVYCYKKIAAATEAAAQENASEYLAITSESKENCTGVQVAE
Experiment: Electrophysiological assay, two-electrode voltage clamp in oocytes, inactivated-state protocol
Format: cell-based
Settings: apparent inhibition constant from single point inhibition data; rat brain type IIa/beta 1 Na+ channels in Xenopus oocytes; inactivated state; read-out: Ki (oocyte)
Reported Metric: Ki (nM)
Answer format: numeric, nM implied, no suffix.

Examples with their reported Ki follow.
Compound	Ki, nM
O=C1CSC(c2cccc(Oc3cccc(C(F)(F)F)c3)c2)N1CCNCc1ccccc1 (stereo not drawn)	50
CN(C)CCCN1C(=O)CSC1c1cccc(Oc2cc(Cl)cc(Cl)c2)c1 (stereo not drawn)	1880
O=C1CSC(C#Cc2ccccc2)N1CCN1CCCCC1 (stereo not drawn)	5350
O=C1CSC(c2cccc(Oc3ccc(Cl)c(Cl)c3)c2)N1CCN1CCCCC1 (stereo not drawn)	180

Q: Given the compound O=C1CSC(c2cccc(Oc3ccccc3)c2)N1C1CCN(Cc2ccccc2)CC1 (stereo not drawn) , write its reported Ki.
Result: 250

Q: Please look at this compound and report its Ki: O=C1CSC(C=C(c2ccccc2)c2ccccc2)N1CCN1CCCCC1 (stereo not drawn)
Result: 290

Q: Identify Ki associated with the compound O=C1CSC(c2cccc3ccccc23)N1CCN1CCCCC1 (stereo not drawn)
Result: 2830

Q: Identify measured Ki corresponding to O=C1CSC(c2cccc(Oc3ccc(Cl)c(Cl)c3)c2)N1CCN1CCOCC1 (stereo not drawn)
Result: 810

Q: Supply recorded Ki for O=C1CSC(c2cccc(Oc3cccc(C(F)(F)F)c3)c2)N1Cc1ccccn1 (stereo not drawn) here.
Result: 3400

Q: Check the records and state Ki for O=C1CSC(c2ccc(-c3ccc(Cl)cc3)o2)N1CCN1CCCCC1 (stereo not drawn)
Result: 600

Q: Item CC1CCCCN1CCCN1C(=O)CSC1c1cccc(Oc2cccc(C(F)(F)F)c2)c1 (stereo not drawn) : provide Ki
Result: 1320

Q: For the compound CN(C)CCN1C(=O)CSC1c1cccc(Oc2cc(Cl)cc(Cl)c2)c1 (stereo not drawn) , report Ki.
Result: 840

====

Target: rBIIa/beta 1 sodium channels expressed in Xenopus oocytes (Rattus norvegicus)
Assay: Electrophysiological assay, two-electrode voltage clamp in oocytes, inactivated-state protocol
Type: cell-based
Description: An electrophysiological assay was used to measure potencies of compounds of the present invention rBIIa/beta 1 sodium channels expressed in Xenopus oocytes. […] Electrophysiology: Membrane current responses are recorded in frog Ringer solution containing 115 mM NaCl, 2 mM KCl, 1.8 mM CaCl2, 5 mM HEPES, pH 7.4. […] The purpose is to find compounds that are state dependent modifiers of neuronal sodium channels. […] Data is acquired using PCLAMP 8.0 software and analyzed with […] software (Axon instruments). […]
Reported Metric: Ki (µM)
// return numeric value only (unit: µM, not printed)

Q: Give recorded Ki. O=C1CSC(C=Cc2ccccc2)N1CCN1CCCCC1 (stereo not shown)
Result: 8.79

====

Molecular target: rBIIa/beta 1 sodium channels expressed in Xenopus oocytes (Rattus norvegicus)
Test: Electrophysiological assay, two-electrode voltage clamp in oocytes, inactivated-state protocol
Type: cell-based
Conditions: apparent inhibition constant from single point inhibition data; rat brain type IIa/beta 1 Na+ channels in Xenopus oocytes; inactivated state; read-out: Ki (oocyte)
Classes (Ki): class A (below 400 nM), class B (400 nM to below 900 nM), class C (900 nM or more)

Examples from the recorded data:
Molecule	Category Label
CCn1c2ccccc2c2cc(C3SCC(=O)N3CCN3CCCC3)ccc21 (stereo not drawn)	class C
CC(C)N(CCN1C(=O)CSC1c1cccc(Oc2cccc(C(F)(F)F)c2)c1)C(C)C (stereo not drawn)	class A
O=C1CSC(c2cccc(Oc3ccccc3)c2)N1CCN1CCCCC1 (stereo not drawn)	class B
CN(C)CC(C)(C)CN1C(=O)CSC1c1cccc(Oc2cccc(C(F)(F)F)c2)c1 (stereo not drawn)	class A
O=C1CSC(c2ccc(Oc3ccc(F)cc3)cc2)N1CCN1CCCCC1 (stereo not drawn)	class B

Q: Category lookup for the molecule COc1ccc(Oc2cccc(C3SCC(=O)N3CCN3CCCCC3)c2)cc1 (stereo not drawn)
Result: class B

Q: Place this molecule in its band: CN(C)CCN1C(=O)CSC1C=C(c1ccccc1)c1ccccc1 (stereo not drawn)
Result: class C

Q: Bin? O=C1CSC(c2cccc(OCc3ccccc3)c2)N1CCCn1ccnc1 (stereo not drawn)
Result: class C

Q: Looking at O=C1CSC(c2cccc(Oc3ccc(Cl)c(Cl)c3)c2)N1CCN1CCCC1 (stereo not drawn) , which class would you pick?
Result: class B

Q: Tag the class for CC(C)(C)c1ccc(Oc2cccc(C3SCC(=O)N3CCN3CCCCC3)c2)cc1 (stereo not drawn)
Result: class A

Q: Kindly state the category for this molecule: O=C1CSC(c2cccc(Oc3cccc(C(F)(F)F)c3)c2)N1CCN1CCCC1 (stereo not drawn)
Result: class B

Q: Entry O=C1CSC(c2cccc(Oc3cccc(C(F)(F)F)c3)c2)N1CCCn1ccnc1 (stereo not drawn) belongs to which category?
Result: class C

Q: Lab note: sort O=C1CSC(c2ccc(Oc3ccc(F)cc3)cc2)N1C1CCN(Cc2ccccc2)CC1 (stereo not drawn) into the matching Ki band.
Result: class A
